Origin of values: PubChem BioAssay (NCI)

Test system: K-562 leukemia
Test Details: NCI tumour cell line growth inhibition, 48 h
Attribute Measured: TGI

Worked cases, TGI given:
Cc1c(C(=O)/C=C/c2ccc(O)cc2)nnn1-c1ccnc2c(C(F)(F)F)cccc12	> 100 µM
CCCCCC(=O)N1c2ccccc2NC2=C(C(=O)CC(c3ccc(OC)c(OC)c3)C2)C1c1ccc(C(F)(F)F)cc1 (stereo not drawn)	> 100 µM
O=C1/C(=C/c2cccc([N+](=O)[O-])c2)CCCc2ccccc21	14.6 µM
COC(=O)n1c(=O)nc2c3c(ncn21)Oc1c(c(-c2ccccc2)nn1-c1ccccc1)C3c1ccc(Cl)cc1 (stereo not drawn)	3.37 µM
CC1CN=C(NCc2ccccc2)S1 (stereo not drawn)	> 100 µM

Lab request: please report TGI under test system K-562 leukemia for CN(C)c1cccc2[nH]c(-c3[nH]ncc3Nc3ccnc(N)n3)nc12 1.52 µM

Please answer likewise for N#Cc1cnn2c1n[n+]([O-])c1ccc(Cl)cc12 3.91 µM

Please answer likewise for CCCOc1ccc(/C=C/c2cc(OC)c(OC)c(OC)c2)cc1 > 100 µM

* * *

Tested on: LOX IMVI melanoma
Test Details: NCI tumour cell line growth inhibition, 48 h
Attribute Measured: TGI

Lab request: please report TGI under test system LOX IMVI melanoma for C=CCOc1cc2c(cc1C(C)c1ccc(OC)cc1)OCO2 (stereo unspecified) > 83.9 µM

Please answer likewise for CCCCCC(=O)N1c2ccccc2NC2=C(C(=O)CC(c3ccc(OC)c(OC)c3)C2)C1c1ccc(C(F)(F)F)cc1 (stereo unspecified) > 100 µM

Please answer likewise for O=S(=O)(O)C(F)(F)C(F)(F)C(F)(F)C(F)(F)F > 100 µM

Please answer likewise for COc1ccc(NC(=O)C2=C(SC)C(C#N)C(=O)N=C2N)cc1 (stereo unspecified) > 100 µM

Please answer likewise for COc1ccc(CSCc2cc(OC)c(OC)c(OC)c2)cc1 > 31.6 µM

Please answer likewise for NC(=S)N/N=C/c1cc(CN2CCOCC2)c(N)cn1 > 100 µM

* * *

System: HCT-116 colon
Test Details: NCI tumour cell line growth inhibition, 48 h
As shown below, each of these compounds has a reported TGI value.

Worked cases, TGI given:
Cc1cccc2c3c(sc12)C(c1ccc(Cl)cc1)C(C#N)=C(/N=C/c1ccc(Cl)cc1)O3 (stereo not drawn)	> 100 µM
COc1nccc(-c2c(-c3ccc(F)cc3)ncn2C2CCC(O)CC2)n1 (stereo not drawn)	> 100 µM

Next item in the queue.
If you can, please state the reported TGI value of CC(=O)Nc1c(C)cc(OCC(=O)O)cc1C . > 100 µM

* * *

System: PC-3 prostate
Test Details: NCI tumour cell line growth inhibition, 48 h
As shown below, each of these compounds has a reported TGI value.

Worked cases, TGI given:
FC(F)(F)c1ccc2c(c1)N(CCCN1CCN(C3CC3)CC1)c1ccccc1S2	20.2 µM
Cc1[nH]c2ncn(/N=C/c3ccccc3)c(=N)c2c1Cc1ccccc1	> 100 µM
CCn1c(=O)c2c(=O)[nH][nH]c2c2ccccc21	> 100 µM

Next item in the queue.
If you can, please state the reported TGI value of O=C(Nc1ccccc1Cl)c1cnc2ccc(C3CCNCC3)cn12 . > 100 µM

* * *

System: A498 renal
Test Details: NCI tumour cell line growth inhibition, 48 h
Attribute Measured: GI50

Worked cases, GI50 given:
COc1n[n+]([O-])c(C)cc1[N+](=O)[O-]	20.2 µM
Cc1sc2ncnc(Sc3nc4ccccc4[nH]3)c2c1C	12.2 µM
O=C(CNC(=O)c1cccc2ccccc12)Nc1ccccc1Oc1cccc(O)c1	5.11 µM

If you can, please state the reported GI50 value of COC(=O)C1=CN(CC2=CC(=O)C(C)=CC2=O)C=C(C(=O)OC)C1c1cccc(OC)c1OC . 20.8 µM
